# credit: ChEMBL document CHEMBL1140198

system: PC-3; test: Cytotoxicity against human PC-3 cells by sulforhodamine B assay; format: functional, cell-based
Items are presented alongside their recorded pIC50.
Answer as the number alone; pIC50 is minus log10 of concentration in mol/L.

INSERT INTO assay_data (compound, measured_target, reported_metric, reported_value) VALUES
  ('COc1cc([C@@H]2c3cc4c(cc3[C@@H](n3cc(CNc5ccccc5)nn3)[C@H]3COC(=O)[C@H]23)OCO4)cc(OC)c1O', 'PC-3', 'pIC50', 5.99);

Now let's try a different one.
**Q:** Which measured pIC50 value corresponds to COc1cc([C@@H]2c3cc4c(cc3[C@@H](n3cc(CNc5cccc([N+](=O)[O-])c5)nn3)[C@H]3COC(=O)[C@H]23)OCO4)cc(OC)c1OC ?
**A:** 6.13
